target: T1, cyno SIRPγ ECD recombinant protein (cyno); experiment: ELISA, cyno SIRPγ ECD
T1 construct: extracellular domain
QUANTITY KIND: TOP OD450 (OD450)
The reply should contain only the number, in OD450.

>>> measured_value("073c (antibody, V domains shown, also called chimeric antibody 073c) VH: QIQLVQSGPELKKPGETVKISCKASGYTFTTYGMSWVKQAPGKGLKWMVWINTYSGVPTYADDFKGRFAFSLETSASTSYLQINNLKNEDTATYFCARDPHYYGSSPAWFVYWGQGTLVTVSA VL: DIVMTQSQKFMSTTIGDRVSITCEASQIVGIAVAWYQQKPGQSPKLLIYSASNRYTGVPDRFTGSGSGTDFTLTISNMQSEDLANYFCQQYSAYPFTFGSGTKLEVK")
0.92

Lab book: TOP OD450 of 025c (antibody, V domains shown, also called chimeric antibody 025c; parental antibody of 025c) VH: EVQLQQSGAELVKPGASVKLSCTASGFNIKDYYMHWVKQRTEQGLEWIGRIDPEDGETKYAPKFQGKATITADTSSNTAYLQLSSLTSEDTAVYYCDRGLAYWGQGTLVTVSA VL: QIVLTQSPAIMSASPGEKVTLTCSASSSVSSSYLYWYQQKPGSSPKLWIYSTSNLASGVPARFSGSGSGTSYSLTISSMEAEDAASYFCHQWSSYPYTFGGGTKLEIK noted as 3.07

Lab book: TOP OD450 of hu1H9G4 (antibody, V domains shown) VH: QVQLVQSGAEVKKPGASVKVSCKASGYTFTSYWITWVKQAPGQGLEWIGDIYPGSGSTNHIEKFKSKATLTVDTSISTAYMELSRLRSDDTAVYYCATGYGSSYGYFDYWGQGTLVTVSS VL: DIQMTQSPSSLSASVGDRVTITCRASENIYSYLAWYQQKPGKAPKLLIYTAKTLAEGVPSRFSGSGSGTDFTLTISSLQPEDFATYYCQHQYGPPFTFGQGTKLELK noted as 1.81

Lab book: TOP OD450 of 042c (antibody, V domains shown, also called chimeric antibody 042c) VH: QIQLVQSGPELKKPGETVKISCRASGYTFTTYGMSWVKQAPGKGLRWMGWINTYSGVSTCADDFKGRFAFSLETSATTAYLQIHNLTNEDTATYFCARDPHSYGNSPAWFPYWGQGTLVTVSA VL: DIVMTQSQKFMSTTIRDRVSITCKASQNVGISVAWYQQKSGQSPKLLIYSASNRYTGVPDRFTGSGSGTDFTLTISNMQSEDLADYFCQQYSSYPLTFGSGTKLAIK noted as 1.22
